Assay: Study A16 Part 1: PK of single ascending oral doses of fospropofol disodium (200 to 2000 mg), fasted healthy adults
Type: in vivo, human
Settings: both sexes, human, plasma, oral, 200 to 2000 mg cohorts; read-out: Fospropofol median Tmax (converted)
measuredMetric: Tmax

Form: compound = CC(C)c1cccc(C(C)C)c1OCOP(=O)(O)O ; Tmax = ~20 min

###

Assay: Study A16 Part 1: PK of single ascending oral doses of fospropofol disodium (200 to 2000 mg), fasted healthy adults
Assay type: in vivo, human
Settings: both sexes, human, plasma, po, 2000 mg, oral fospropofol disodium 2000 mg; mean; read-out: Fospropofol Cmax
measuredMetric: Cmax (ng/mL)
Numbers only, in ng/mL.

Form: molecule = CC(C)c1cccc(C(C)C)c1OCOP(=O)(O)O ; Cmax = 17100

###

Assay: Study No. 15-4 toxicokinetics of fospropofol and propofol in plasma
Assay type: in vivo, Beagle dogs
Settings: female, beagle, dog, plasma, po, 50 mg/kg, oral gavage fospropofol disodium; Female; 50 mg/kg; Day 1
measuredMetric: Cmax (ng/mL)
One number for each entry, in ng/mL.

Form: compound = CC(C)c1cccc(C(C)C)c1OCOP(=O)(O)O ; Cmax = 3680

###

Experiment: Study No. 15-3 toxicokinetics of fospropofol and propofol in plasma
Assay type: in vivo, Sprague-Dawley rats
Conditions: male, Sprague-Dawley, rat, plasma, po, 100 mg/kg, oral gavage fospropofol disodium; Male; 100 mg/kg; Day 1; read-out: Fospropofol AUC0-6 hr
measuredMetric: AUC(0-t) (ng·h/mL)
Numbers only, in ng·h/mL.

Form: compound = CC(C)c1cccc(C(C)C)c1OCOP(=O)(O)O ; AUC(0-t) = 386

###

Assay: Study No. 15-3 toxicokinetics of fospropofol and propofol in plasma
Format: in vivo, Sprague-Dawley rats
Conditions: male, Sprague-Dawley, rat, plasma, po, 50 mg/kg, Propofol Cmax, oral gavage fospropofol disodium; Male; 50 mg/kg; Day 14
measuredMetric: Cmax (ng/mL)
Answers are plain numbers, in ng/mL.

Form: compound = CC(C)c1cccc(C(C)C)c1O ; Cmax = 301

###

Experiment: Study No. 15-4 toxicokinetics of fospropofol and propofol in plasma
Format: in vivo, Beagle dogs
Details: female, beagle, dog, plasma, po, 100 mg/kg, oral gavage fospropofol disodium; Female; 100 mg/kg; Day 14
measuredMetric: Cmax (ng/mL)
Numbers only, in ng/mL.

Form: compound = CC(C)c1cccc(C(C)C)c1OCOP(=O)(O)O ; Cmax = 9310

###

Test: Study A16 Part 1: PK of single ascending oral doses of fospropofol disodium (200 to 2000 mg), fasted healthy adults
Format: in vivo, human
Conditions: both sexes, human, plasma, oral, 1200 mg, Propofol Tmax (median), fasting conditions
measuredMetric: Tmax (min)
One number for each entry, in min.

Form: compound = CC(C)c1cccc(C(C)C)c1O ; Tmax = 37

###

Assay: Study A16 Part 1: PK of single ascending oral doses of fospropofol disodium (200 to 2000 mg), fasted healthy adults
Assay type: in vivo, human
Details: both sexes, human, plasma; oral fospropofol disodium 2000 mg; mean; read-out: Fospropofol AUC0-∞
measuredMetric: AUC(0-inf)
Answer format: value, then unit.

Form: compound = CC(C)c1cccc(C(C)C)c1OCOP(=O)(O)O [fospropofol] ; AUC(0-inf) = 11000 ng·h/mL

###

Assay: Study A16 Part 1: PK of single ascending oral doses of fospropofol disodium (200 to 2000 mg), fasted healthy adults
Format: in vivo, human
Conditions: female, human, plasma, oral, 800 mg, females only (800 mg cohort); individual subjects (Subject No. in c0); read-out: Fospropofol Tmax
measuredMetric: Tmax (min)
Give bare numbers, in min.

Form: compound = CC(C)c1cccc(C(C)C)c1OCOP(=O)(O)O ; Tmax = 30
